# System: MDA175-VII (NRG1-DOC4 fusion) cells
# assay-protocol: Cell viability by Cell Titer Glo assay, 72 hours treatment
# Assay type: cell-based
# condition-label: 72 h, read-out: Average IC50
experimental-readout: pIC50
Conceptually, pIC50 converts a concentration in mol/L into minus its log10.

### Prompt State the recorded pIC50 for this entry: CCOc1cc2ncc(C#N)c(Nc3ccc(OCc4ccccn4)c(Cl)c3)c2cc1NC(=O)/C=C/CN(C)C
### Response 9.13

The measurements presented in this section are drawn from patent US20230112470A1.
